# Target under test: UniProtKB P14902
# Sequence (P14902 whole entry): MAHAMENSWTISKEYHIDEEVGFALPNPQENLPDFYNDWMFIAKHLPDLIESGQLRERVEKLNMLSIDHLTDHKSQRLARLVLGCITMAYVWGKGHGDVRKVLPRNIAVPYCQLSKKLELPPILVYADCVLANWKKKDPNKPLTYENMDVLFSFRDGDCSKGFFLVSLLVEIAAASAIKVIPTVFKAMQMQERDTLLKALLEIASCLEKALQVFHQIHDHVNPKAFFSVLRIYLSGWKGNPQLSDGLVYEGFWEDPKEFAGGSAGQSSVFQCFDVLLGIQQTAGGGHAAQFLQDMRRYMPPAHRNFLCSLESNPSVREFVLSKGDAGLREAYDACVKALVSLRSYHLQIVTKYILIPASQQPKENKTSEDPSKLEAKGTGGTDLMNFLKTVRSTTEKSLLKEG
# Experiment notes: Assessment of human IDO-1 inhibitory activity in HEK cells (human IDO1/HEK293 cells, kynurenine read-out with Ehrlich reagent, absorbance 490 nm)
# Assay type: cell-based
# Set-up: expressed in transfected cells
# Protocol conditions: HEK Human IDO-1 cellular assay
Property label: IC50

Take a look at these entries with their results.
Compound: CCC(CC(=O)O)c1ccc(N(CC(C)C)C2CCCCC2)c(Nc2ccc(Cl)c(OC(F)F)c2)c1 (single isomer, unassigned) [Example 642]
Target under test: UniProtKB P14902
Result: < 5 nM
//
Compound: CCC(CC(=O)O)c1ccc(N2CCC[C@@H]2C(C)(C)O)c(Nc2ccc(F)cc2)c1 (single isomer, unassigned) [Example 784]
Target under test: UniProtKB P14902
Result: > 50 nM
//
Compound: CCc1cnc(Nc2cc([C@H](CC)CC(=O)O)ccc2N(CC)C2CCOCC2)nc1 (single isomer, unassigned) [Example 500]
Target under test: UniProtKB P14902
Result: > 50 nM

Turning now to a further compound:
Param item: COCC(CC(=O)O)c1ccc(N(CC(C)C)CC(C)C)c(NC(=O)Nc2ccc(Cl)cc2F)c1 (single isomer, unassigned) [995-1] ; param system: UniProtKB P14902; output IC50: < 5 nM
